B1: CPEB3 Ribozyme (parent)
chain: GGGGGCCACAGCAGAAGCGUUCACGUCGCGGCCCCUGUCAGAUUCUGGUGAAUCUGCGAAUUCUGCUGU

Variants of: B1
test-details: self-cleavage, relative activity (ratio to wild type); higher = more cleavage; co-transcriptional
Entries are grouped by self-cleavage into these classes: low-valued = under 0.4, mid-valued = from 0.4 up to 0.9, high-valued = 0.9 and over

variant-name	label-class
U20A A40C	low-valued
U49A G50U	high-valued
G19U C34U	mid-valued
G5A G48C	high-valued
G3A A8C	mid-valued
C24G C29U	low-valued
G4U U21G	low-valued
A10G C12G	mid-valued
A15U U69A	high-valued
A23C U26C	high-valued
U21A U61C	mid-valued
A13C A42C	mid-valued
C18G C66G	low-valued
U20C U55C	low-valued
A13U U26A	mid-valued
U21C C57G	low-valued
C33U A52G	high-valued
